Assay: Cmax in human at 86 mg, po dosed as prolonged release formulation
Assay type: ADME, organism-based
Parameters: dose 86 mg, route oral
Settings: in vivo

CHEM_SMILES: CC[C@@H](c1cccc(O)c1)[C@@H](C)CN(C)C
Cmax, nM: 100

###

Test: Cmax in human at 60 mg, po
Format: ADME
Parameters: dose 60 mg, route oral
Details: in vivo
READOUT_KIND: Cmax (nM)

CHEM_SMILES: COc1ccc2c(c1)[C@]13CCCC[C@@H]1[C@H](C2)N(C)CC3
REPORTED: 20

###

Molecular target: OCT1 (SLC22A1) (Homo sapiens, UniProt O15245)
Sequence (O15245 whole entry): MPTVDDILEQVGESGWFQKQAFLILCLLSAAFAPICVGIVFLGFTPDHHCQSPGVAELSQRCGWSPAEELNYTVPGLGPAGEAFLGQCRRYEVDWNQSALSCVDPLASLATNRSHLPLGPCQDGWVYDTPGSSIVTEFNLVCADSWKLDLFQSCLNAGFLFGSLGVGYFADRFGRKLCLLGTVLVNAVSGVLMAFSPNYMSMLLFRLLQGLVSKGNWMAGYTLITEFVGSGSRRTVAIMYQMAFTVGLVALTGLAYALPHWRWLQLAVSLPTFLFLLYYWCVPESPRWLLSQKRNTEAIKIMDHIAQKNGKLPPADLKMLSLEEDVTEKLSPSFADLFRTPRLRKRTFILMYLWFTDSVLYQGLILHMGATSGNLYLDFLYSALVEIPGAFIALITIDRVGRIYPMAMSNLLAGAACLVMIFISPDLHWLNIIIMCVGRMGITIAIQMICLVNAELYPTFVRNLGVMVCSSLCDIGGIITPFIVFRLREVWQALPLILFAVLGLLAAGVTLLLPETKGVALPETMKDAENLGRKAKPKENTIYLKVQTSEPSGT
Assay: Substrate activity at human OCT1 expressed in HEK293 cells assessed as increase in compound uptake at 0.5 uM incubated for 2 mins by LC-MS/MS analysis relative to control empty vector transfected cells
Assay type: cell-based
Conditions: HEK293 cells that express human OCT1, read-out: FC
Param threshold (1) applies to uptake ratio at 2 min, 0.5 µM; output true (1) when value >= threshold, false (0) when value < threshold.

COMPOUND: CN1CC[C@]23CCCC[C@H]2[C@H]1Cc1ccc(O)cc13 [LEVORPHANOL]
ASSAYED_SYSTEM: OCT1 (SLC22A1) (Homo sapiens, UniProt O15245)
QUALITATIVE_LABEL: true (1)
//
COMPOUND: COc1ccc2c(c1)[C@@]13CCCC[C@H]1[C@@H](C2)NCC3
ASSAYED_SYSTEM: OCT1 (SLC22A1) (Homo sapiens, UniProt O15245)
QUALITATIVE_LABEL: true (1)
//
COMPOUND: CN1CC[C@@]23CCCC[C@@H]2[C@@H]1Cc1ccc(O)cc13 [DEXTRORPHAN]
ASSAYED_SYSTEM: OCT1 (SLC22A1) (Homo sapiens, UniProt O15245)
QUALITATIVE_LABEL: true (1)
//
COMPOUND: COc1ccc2c3c1O[C@H]1C(=O)CC[C@H]4[C@@H](C2)N(C)CC[C@]314 [HYDROCODONE]
ASSAYED_SYSTEM: OCT1 (SLC22A1) (Homo sapiens, UniProt O15245)
QUALITATIVE_LABEL: true (1)
//
COMPOUND: CCOC(=O)[C@@]1(c2ccccc2)CCC=C[C@@H]1N(C)C
ASSAYED_SYSTEM: OCT1 (SLC22A1) (Homo sapiens, UniProt O15245)
QUALITATIVE_LABEL: true (1)
//
COMPOUND: COc1ccc2c3c1O[C@H]1C(=O)CC[C@@]4(O)[C@@H](C2)NCC[C@]314
ASSAYED_SYSTEM: OCT1 (SLC22A1) (Homo sapiens, UniProt O15245)
QUALITATIVE_LABEL: true (1)
//
COMPOUND: COc1ccc2c(c1)[C@]13CCCC[C@@H]1[C@H](C2)N(C)CC3 [DEXTROMETHORPHAN]
ASSAYED_SYSTEM: OCT1 (SLC22A1) (Homo sapiens, UniProt O15245)
QUALITATIVE_LABEL: false (0)
//
COMPOUND: Oc1ccc2c(c1)[C@@]13CCCC[C@H]1[C@@H](C2)NCC3 [NORLEVORPHANOL]
ASSAYED_SYSTEM: OCT1 (SLC22A1) (Homo sapiens, UniProt O15245)
QUALITATIVE_LABEL: true (1)
//
COMPOUND: CCC1(c2cccc(O)c2)CCCCN(C)C1 (stereo not given) [MEPTAZINOL]
ASSAYED_SYSTEM: OCT1 (SLC22A1) (Homo sapiens, UniProt O15245)
QUALITATIVE_LABEL: true (1)
//
COMPOUND: COc1ccc2c3c1O[C@H]1[C@@H](O)C=C[C@H]4[C@@H](C2)N(C)CC[C@@]341 [CODEINE]
ASSAYED_SYSTEM: OCT1 (SLC22A1) (Homo sapiens, UniProt O15245)
QUALITATIVE_LABEL: false (0)
//
COMPOUND: CN1CC[C@]23c4c5ccc(O)c4O[C@H]2C(=O)CC[C@@]3(O)[C@H]1C5 [OXYMORPHONE]
ASSAYED_SYSTEM: OCT1 (SLC22A1) (Homo sapiens, UniProt O15245)
QUALITATIVE_LABEL: false (0)
//
COMPOUND: CC[C@@H](c1cccc(O)c1)[C@@H](C)CN(C)C [TAPENTADOL]
ASSAYED_SYSTEM: OCT1 (SLC22A1) (Homo sapiens, UniProt O15245)
QUALITATIVE_LABEL: true (1)
//
COMPOUND: CCOC(=O)C1(c2ccccc2)CCN(C)CC1 [MEPERIDINE]
ASSAYED_SYSTEM: OCT1 (SLC22A1) (Homo sapiens, UniProt O15245)
QUALITATIVE_LABEL: true (1)
//
COMPOUND: COc1ccc2c3c1O[C@H]1C(=O)CC[C@@]4(O)[C@@H](C2)N(C)CC[C@]314 [OXYCODONE]
ASSAYED_SYSTEM: OCT1 (SLC22A1) (Homo sapiens, UniProt O15245)
QUALITATIVE_LABEL: false (0)

###

Experiment: in vitro
Conditions: PAMPA
Description: Passive membrane permeability by LC-MS/MS analysis based PAMPA
Below is a list of entries, each paired with its recorded Papp value.
READOUT_KIND: Papp (×10⁻⁶ cm/s)

COMPOUND: COc1ccc2c3c1O[C@H]1C(=O)CC[C@@]4(O)[C@@H](C2)NCC[C@]314
READOUT_KIND: Papp
REPORTED: 0.9

COMPOUND: COc1ccc2c3c1O[C@H]1C(=O)CC[C@H]4[C@@H](C2)N(C)CC[C@]314 [HYDROCODONE]
READOUT_KIND: Papp
REPORTED: 9.1

COMPOUND: CCOC(=O)[C@@]1(c2ccccc2)CCC=C[C@@H]1N(C)C
READOUT_KIND: Papp
REPORTED: 31.6

COMPOUND: COc1cccc([C@@]2(O)CCCC[C@@H]2CN(C)C)c1 [(R,R)-TRAMADOL]
READOUT_KIND: Papp
REPORTED: 26.9

COMPOUND: CCC1(c2cccc(O)c2)CCCCN(C)C1 (stereo not given) [MEPTAZINOL]
READOUT_KIND: Papp
REPORTED: 14.3

###

Test: Intrinsic clearance in human liver microsomes
Format: ADME, Microsome
Settings: read-out: CLH

COMPOUND: C[N+]1(CC2CC2)CC[C@]23c4c5ccc(O)c4O[C@H]2C(=O)CC[C@@]3(O)[C@H]1C5 (stereo partly specified) [METHYLNALTREXONE]
microsomal CLint, µL/min/mg: 32

###

Experiment: Cmax in human at 50 mg, po
Assay type: ADME
Parameters: dose 50 mg, route oral
Settings: in vivo
READOUT_KIND: Cmax (nM)

CHEM_SMILES: CCOC(=O)[C@@]1(c2ccccc2)CCC=C[C@@H]1N(C)C
UOM: nM
REPORTED: 110

###

Assay: in vitro
Conditions: PAMPA
Rule: Papp of 20 ×10⁻⁶ cm/s or more gives Satisfied; anything lower gives Not satisfied.

COMPOUND: CCOC(=O)C1(c2ccccc2)CCN(C)CC1 [MEPERIDINE]
QUALITATIVE_LABEL: Satisfied
//
COMPOUND: CN1CC[C@]23CCCC[C@H]2[C@H]1Cc1ccc(O)cc13 [LEVORPHANOL]
QUALITATIVE_LABEL: Not satisfied
//
COMPOUND: CN1CC[C@@]23CCCC[C@@H]2[C@@H]1Cc1ccc(O)cc13 [DEXTRORPHAN]
QUALITATIVE_LABEL: Not satisfied
//
COMPOUND: Oc1ccc2c(c1)[C@@]13CCCC[C@H]1[C@@H](C2)NCC3 [NORLEVORPHANOL]
QUALITATIVE_LABEL: Not satisfied
//
COMPOUND: O=C1CC[C@@]2(O)[C@H]3Cc4ccc(O)c5c4[C@@]2(CCN3CC2CC2)[C@H]1O5 [NALTREXONE]
QUALITATIVE_LABEL: Not satisfied
//
COMPOUND: CNC[C@H]1CCCC[C@]1(O)c1cccc(OC)c1
QUALITATIVE_LABEL: Not satisfied
//
COMPOUND: COc1ccc2c3c1O[C@H]1C(=O)CC[C@@]4(O)[C@@H](C2)N(C)CC[C@]314 [OXYCODONE]
QUALITATIVE_LABEL: Not satisfied
//
COMPOUND: COc1ccc2c3c1O[C@H]1[C@@H](O)C=C[C@H]4[C@@H](C2)N(C)CC[C@@]341 [CODEINE]
QUALITATIVE_LABEL: Not satisfied
//
COMPOUND: CN1CC[C@]23c4c5ccc(O)c4O[C@H]2C(=O)CC[C@@]3(O)[C@H]1C5 [OXYMORPHONE]
QUALITATIVE_LABEL: Not satisfied
//
COMPOUND: CC[C@@H](c1cccc(O)c1)[C@@H](C)CN(C)C [TAPENTADOL]
QUALITATIVE_LABEL: Not satisfied
//
COMPOUND: COc1ccc2c(c1)[C@]13CCCC[C@@H]1[C@H](C2)N(C)CC3 [DEXTROMETHORPHAN]
QUALITATIVE_LABEL: Satisfied
//
COMPOUND: COc1ccc2c(c1)[C@@]13CCCC[C@H]1[C@@H](C2)NCC3
QUALITATIVE_LABEL: Not satisfied

Numbers sourced from ChEMBL document CHEMBL4321821.
